- assay.info: AUC (0 to 7 hrs) in athymic nude mouse at 10 mg/kg, po measured for 0.5 to 24 hrs by LC-MS/MS analysis
- Format: ADME, organism-based
- Parameters: time < 7 hr, dose 10 mg/kg, route oral
- condition.context: in vivo
assay.readout: AUC(0-t) at 7 h (µM·h)

1. CCOc1nc2ccccc2n1Cc1ccc(NC(=O)N2CC(c3cccnc3)C2)cc1 67.4

====

- assay.info: Solubility of compound in pH 6.8 PBS incubated for 16 to 24 hrs under shaking condition by LC-MS/MS analysis
- Format: physicochemical
assay.readout: solubility thermodynamic (µM)

1) C[C@H](NC(=O)c1ncccn1)c1ccc(NC(=O)N2CC(c3cncc(N)c3)C2)cc1 300
2) C[C@H](NC(=O)C1CCOCC1)c1ccc(NC(=O)N2CC(c3cncc(N)c3)C2)cc1 440
3) C[C@H](NC(=O)C1CCOCC1)c1ccc(NC(=O)N2CC(c3cccnc3)C2)cc1 380
4) C[C@H](NC(=O)c1cccc(F)c1)c1ccc(NC(=O)N2CC(c3cncc(N)c3)C2)cc1 17

====

- assay.info: Solubility of compound in pH 6.8 PBS incubated for 16 to 24 hrs under shaking condition by LC-MS/MS analysis
- Format: physicochemical
The following compounds are shown together with reported solubility thermodynamic values.
assay.readout: solubility thermodynamic

1) C[C@H](NC(=O)c1ncccn1)c1ccc(NC(=O)N2CC(c3cccnc3)C2)cc1 930 µM
2) C[C@@H](c1ccc(NC(=O)N2CC(c3cncc(N)c3)C2)cc1)N1Cc2ccccc2C1=O 35 µM
3) C[C@H](NC(=O)C1CCOCC1)c1ccc(NC(=O)N2CC(c3ccc(N)nc3)C2)cc1 310 µM
4) C[C@H](NC(=O)c1cccc(F)c1)c1ccc(NC(=O)N2CC(c3cccnc3)C2)cc1 11 µM

====

- assay.info: Cmax in athymic nude mouse at 10 mg/kg, po measured for 0.5 to 24 hrs by LC-MS/MS analysis
- Type: ADME, organism-based
- Design: dose 10 mg/kg, route oral
- condition.context: in vivo
assay.readout: Cmax

1) CCOc1nc2ccccc2n1Cc1ccc(NC(=O)N2CC(c3cccnc3)C2)cc1 29.1 µM

====

- assay.info: Solubility of compound in pH 6.8 PBS incubated for 16 to 24 hrs under shaking condition by LC-MS/MS analysis
- Assay type: physicochemical
The following compounds are shown together with reported log10(solubility thermodynamic) values.
assay.readout: log10(solubility thermodynamic) (log10 of the value in µM)

1) C[C@H](NC(=O)[C@@H]1CCCN1C)c1ccc(NC(=O)N2CC(c3ccc(N)nc3)C2)cc1 2.88
2) CCC(=O)N[C@@H](C)c1ccc(NC(=O)N2CC(c3ccc(N)nc3)C2)cc1 2.88
3) C[C@H](NC(=O)[C@@H]1CCCN1C)c1ccc(NC(=O)N2CC(c3cncc(N)c3)C2)cc1 2.91
4) CCC(=O)N[C@@H](C)c1ccc(NC(=O)N2CC(c3cccnc3)C2)cc1 2.85
5) CCC(=O)N[C@@H](C)c1ccc(NC(=O)N2CC(c3cncc(N)c3)C2)cc1 2.36
6) C[C@@H](c1ccc(NC(=O)N2CC(c3ccc(N)nc3)C2)cc1)N1Cc2ccccc2C1=O 2.34
7) C[C@H](NC(=O)c1cccc(F)c1)c1ccc(NC(=O)N2CC(c3ccc(N)nc3)C2)cc1 1.51
8) C[C@@H](c1ccc(NC(=O)N2CC(c3cccnc3)C2)cc1)N1Cc2ccccc2C1=O 2.11
9) C[C@H](NC(=O)c1ncccn1)c1ccc(NC(=O)N2CC(c3ccc(N)nc3)C2)cc1 2.48
